system: Bifidobacterium longum subsp. longum; experiment: growth AUC relative to DMSO control (median of replicates) (fraction); higher = more growth (less inhibition), active = hit call of the paper; settings: 20 µM; 24 h;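 active = AUC reduced over 20% with Padj below 0.05 in at least 2 of 3 replicates; inactive = otherwise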
Outcomes you can answer with include only these: yes = active, no = inactive

Look over these answered cases.
// param item: CS(=O)(=O)NC(=O)c1cc(Oc2ccc(C(F)(F)F)cc2Cl)ccc1[N+](=O)[O-] ; yields the recorded call no

// param item: ClC1=C(Cl)C(Cl)(C2(Cl)C(Cl)=C(Cl)C(Cl)=C2Cl)C(Cl)=C1Cl ; yields the recorded call no

// param item: Clc1cc(Cl)nc(-c2ccccc2)n1 ; yields the recorded call no

---
// param item: COc1c(Cl)ccc(Cl)c1Cl ; yields the recorded call no

// param item: CCCCCCCCn1sccc1=O ; yields the recorded call yes

// param item: ClCC1C(CCl)C2(Cl)C(Cl)=C(Cl)C1(Cl)C2(Cl)Cl (stereo unspecified) ; yields the recorded call no

// param item: CC1CNC(=S)N1 (stereo unspecified) ; yields the recorded call no

// param item: Cn1cc(-c2ccccc2)c(=O)c(-c2cccc(C(F)(F)F)c2)c1 ; yields the recorded call no

// param item: CCCSP(=S)(OCC)Oc1ccc(SC)cc1 (stereo unspecified) ; yields the recorded call no

// param item: Cc1cc(C)nc(NC(=O)NS(=O)(=O)c2ccccc2C(=O)OC2COC2)n1 ; yields the recorded call no

// param item: CCCOC(=O)c1ccccc1C(=O)OCCC ; yields the recorded call no

// param item: CC1(C)[C@H](C(=O)O[C@H](C#N)c2cccc(Oc3ccccc3)c2)[C@@H]1/C=C\C(=O)OC(C(F)(F)F)C(F)(F)F ; yields the recorded call no

// param item: COP(=O)(OC)SCn1c(=O)oc2cc(Cl)cnc21 ; yields the recorded call no

// param item: O=C(O)c1ccc(Cl)nc1 ; yields the recorded call no

// param item: Cc1[nH]c(=O)n(C(C)(C)C)c(=O)c1Cl ; yields the recorded call no

// param item: COP(=O)(OC)Oc1ccc([N+](=O)[O-])cc1 ; yields the recorded call no

// param item: COc1cc(OC)n2nc(S(=O)(=O)Nc3c(Cl)ccc(C)c3Cl)nc2n1 ; yields the recorded call no

// param item: COP(=S)(OC)Oc1ccc(S(C)(=O)=O)c(C)c1 ; yields the recorded call no

// param item: COCc1c(F)c(F)c(COC(=O)[C@@H]2[C@@H](C=C(Cl)Cl)C2(C)C)c(F)c1F ; yields the recorded call no

// param item: COS(=O)(=O)[O-].Cn1c(-c2ccccc2)cc(-c2ccccc2)[n+]1C ; yields the recorded call no

// param item: Oc1c(Br)cc(Br)cc1Br ; yields the recorded call no

// param item: Cc1cc(Cl)ccc1O ; yields the recorded call no

###

system: Escherichia coli ED1a; experiment: growth AUC relative to DMSO control (median of replicates) (fraction); higher = more growth (less inhibition), active = hit call of the paper; conditions: 20 µM; 24 h
Provide the recorded growth AUC for the entries that follow.
One number for each entry.

As a guide, the following entries are already answered.
Would you mind telling me what growth AUC value was observed for ClC(Cl)=C(c1ccc(Cl)cc1)c1ccc(Cl)cc1 ? 1

Would you mind telling me what growth AUC value was observed for CCOCn1c(-c2ccc(Cl)cc2)c(C#N)c(Br)c1C(F)(F)F ? 0.99

Would you mind telling me what growth AUC value was observed for COc1cc(OC)nc(NC(=O)NS(=O)(=O)c2cc(NC=O)ccc2C(=O)N(C)C)n1 ? 0.996

Working through the 4 molecules below one at a time, give growth AUC for each.
1. CCOC(=O)C(Cl)Cc1cc(-n2nc(C)n(C(F)F)c2=O)c(F)cc1Cl (stereo not drawn)
2. Oc1ccccc1-c1ccccc1
3. COP(=S)(OC)Oc1ccc(S(C)=O)c(C)c1 (stereo not drawn)
4. COP(=S)(OC)Oc1ccc([N+](=O)[O-])cc1

0.986
1.02
0.975
0.999

Working through the 5 molecules below one at a time, give growth AUC for each.
1. CNc1cnn(-c2cccc(C(F)(F)F)c2)c(=O)c1Cl
2. CNC(=O)O/N=C(\C)SC
3. CC1(C)[C@H](/C=C(\Cl)C(F)(F)F)[C@@H]1C(=O)O[C@@H](C#N)c1cccc(Oc2ccccc2)c1
4. CN(C)C(=O)C(c1ccccc1)c1ccccc1
5. CC1(C)C(C(=O)OC(C#N)c2cccc(Oc3ccccc3)c2)C1(C)C (stereo not drawn)

1: 0.99; 2: 0.979; 3: 1; 4: 0.98; 5: 1.01

Working through the 6 molecules below one at a time, give growth AUC for each.
1. CNC(=O)/C=C(\C)OP(=O)(OC)OC
2. CNC(=O)Oc1ccccc1OC(C)C
3. CCOc1cc(Oc2ccc(C(F)(F)F)cc2Cl)ccc1[N+](=O)[O-]
4. COC(=O)C(Cl)Cl
5. CN1COCN(Cc2cnc(Cl)s2)/C1=N/[N+](=O)[O-]
6. CNC(=O)CSP(=S)(OC)OC

1. 1.05
2. 0.986
3. 1.01
4. 1
5. 0.987
6. 0.977

Working through the 7 molecules below one at a time, give growth AUC for each.
1. COC(=O)c1ccccc1S(=O)(=O)NC(=O)Nc1nc(C)cc(C)n1
2. COC(=O)COc1ccc(Cl)cc1Cl
3. CCCN(CCC)c1c([N+](=O)[O-])cc(C(F)(F)F)cc1[N+](=O)[O-]
4. CCOP(=S)(OCC)SCSP(=S)(OCC)OCC
5. COC(=O)C(C)Oc1ccc(Oc2ccc(Cl)cc2Cl)cc1 (stereo not drawn)
6. COCC(C)N(C(=O)CCl)c1c(C)csc1C (stereo not drawn)
7. CCOP(=S)(Oc1cnc(C(C)(C)C)nc1)OC(C)C (stereo not drawn)

1: 0.993; 2: 0.968; 3: 1.02; 4: 0.983; 5: 0.99; 6: 0.976; 7: 1.01
